Consider the following molecules; for each one, report its combination Emax.
System: SU-DHL-8 (B-Cell Non-Hodgkin's Lymphoma)
Protocol Text: combination Emax (second highest fraction inhibited in the dose matrix, 72 h); higher = more inhibition; extreme values may be limits of the assay

Query: Give me measured combination Emax, please, for this molecule: Cc1c2c(nn1C)CSCc1cc(n(C)n1)CSc1cc(c3ccccc3c1)OCCCc1c(C(=O)O)n(C)c3c-2c(Cl)ccc13 [AZD5991] + C=CCn1c(=O)c2cnc(Nc3ccc(N4CCN(C)CC4)cc3)nc2n1-c1cccc(C(C)(C)O)n1 [AZD1775] (first compound max 1 µM, partner max 1 µM)
Reply: 1

Query: Provide one value: measured combination Emax of CC1(C)CCC(CN2CCN(c3ccc(C(=O)NS(=O)(=O)c4ccc(NCC5CCOCC5)c([N+](=O)[O-])c4)c(Oc4cnc5[nH]ccc5c4)c3)CC2)=C(c2ccc(Cl)cc2)C1 [Venetoclax] + Cc1cc2ncnn2cc1Nc1ncc2c(n1)n(C1CCOCC1)c(=O)n2C [AZD7648] (first compound max 1 µM, 7x7, partner max 10 µM)
Reply: 0.354

Query: Provide one value: measured combination Emax of Cc1c2c(nn1C)CSCc1cc(n(C)n1)CSc1cc(c3ccccc3c1)OCCCc1c(C(=O)O)n(C)c3c-2c(Cl)ccc13 [AZD5991] + CN(C)CCCOc1ccc(-c2ccc3ncc4c(c3c2)n(C2CCOCC2)c(=O)n4C)cn1 [AZD0156] (first compound max 1 µM, 7x7, partner max 1 µM)
Reply: 0.692

Query: Read the entry CN(C)CCCOc1ccc(-c2ccc3ncc4c(c3c2)n(C2CCOCC2)c(=O)n4C)cn1 [AZD0156] + C[C@@H]1COCCN1C2=NC(=NC(=C2)C3(CC3)[S@](=N)(=O)C)C4=C5C=CNC5=NC=C4 [AZD6738] (first compound max 1 µM, 7x7, partner max 10 µM) and write its reported combination Emax.
Reply: 0.892

Reference for the values: the supplement of paper PMC11061612
